# System: CAKI-1 renal
# procedure.text: NCI-60 one-dose screen, 48 h
# test.parameters: 10 µM unless noted
This is part of a sample that, as a whole, favours compounds with a hit. Of some 83,000 tested, about 20% had one in any assay. The source made the active and inactive calls. The calls were made as follows: active = growth percent below 10; inactive = the rest.
Hello, when you answer, please use one of the following outcomes: class 1 (active), class 0 (inactive)

compound	assigned.category
C#CC[C@@H]1C[C@]2(C)[C@H]3CC[C@@H]4[C@H]5C(C(=C)C)CC[C@]5(C(=O)NCCCCCCCCN)CC[C@@]4(C)[C@]3(C)CC[C@H]2C(C)(C)[C@H]1OC(C)=O (stereo not given in full)	class 0
COc1ccc(-c2oc(=O)ccc2-c2cc(OC)c(OC)c(OC)c2)cc1F	class 0
O=C1Nc2ccccc2/C1=C/c1c[nH]c2ccccc12	class 0
CCN(C(=O)Nc1cccc2ccccc12)c1ccccc1	class 0
N=c1n(Cc2ccccc2)c(N)cc(=O)n1Cc1ccccc1	class 1
COc1cc(C2CC(c3cccc(Nc4ccnc5cc(Cl)ccc45)c3)=NN2c2ccccc2)cc(OC)c1OC (stereo not given)	class 1

Which outcome did this test record for the compound Cc1ccc2cc3c(NC(=O)c4cccnc4)nn(C)c3nc2c1 ?
class 0

Let us now turn to Clc1ccc(Nc2ncnc3c2sc2ncccc23)cc1
class 0

Let us now turn to COc1ccc2nc(NC(=O)/C(=C/c3cc(OC)c(OC)c(OC)c3)c3ccc(OC)c(OC)c3)sc2c1
class 0

Let us now turn to CCN(C)CCCOc1ccc(/C(=C(\C)Cc2cccc(OC)c2)c2ccc(OC(C)=O)cc2)cc1
class 0

Let us now turn to Clc1cc(Br)ccc1-c1ccc(CNCC2CCNCC2)o1
class 0

Let us now turn to COc1ccc2[nH]cc(C(c3ccc(Cl)cc3)N3CCCC3)c2c1 (stereo not given)
class 0

Let us now turn to COc1cccc(NC(=O)c2c(-c3ccccc3)c(-c3ccccc3)n[nH]c2=O)c1
class 0

Let us now turn to FC1(F)CCN(Cc2c[nH]c3cc(Cl)ccc23)C[C@H]1CCc1ccccc1
class 0

Let us now turn to C=CCOc1c(Br)cc(Br)cc1Br
class 0

Let us now turn to Fc1[nH]nc2ccc([C@@H]3Nc4ccc5[nH]ncc5c4[C@H]4C5CCC(C5)[C@@H]34)cc12 (stereo not given in full)
class 0

Let us now turn to CC(=O)c1nn(-c2ccccc2)/c(=N\N=C\c2coc3ccc(F)cc3c2=O)s1
class 0

Let us now turn to COc1ccccc1/C=N\NC(=S)Nc1ccc(F)cc1
class 0

Let us now turn to NC(=O)Nc1ccc2ncnc(Nc3cccc(O)c3)c2c1
class 0

Let us now turn to CCCCCCCCCC1=NC(C)(C)CN1C(C)(C)CO
class 0
